This collection of values is drawn from ChEMBL document CHEMBL1130920.

Test: Compound was tested for the inhibitory activity against cobra venom PLA2 (Naja naja atra) by using the Dole assay
For each record, write down the corresponding Activity (nM min-1 mg-1).
Answers are plain numbers.

> print(dat)
                                   molecule  meas.value
1  [O-][S+](c1ccc(O)cc1)C(F)(F)F (centres undefined)           2

Each of the following entries comes with a recorded value; kindly state Activity (nM min-1 mg-1) for each.
1. O=[N+]([O-])c1ccc(O)cc1
2. O=S(=O)(c1ccc(O)cc1)C(F)(F)F
3. CS(=O)(=O)c1ccc(O)cc1

// result
1: 2.5; 2: 11.9; 3: 11.1
